From: ChEMBL document CHEMBL2021793

experiment: Cytotoxicity against human HepG2(2.2.15) cells; assay type: cell-based
EXPERIMENTAL_ENDPOINT: CC50

Enquiry: Which value of CC50 has been reported for CCOC(=O)CCCOC(=O)[C@@]1(C)CC[C@]2(C)CC[C@]3(C)C(=CC[C@@H]4[C@@]5(C)CC[C@H](OC(=O)c6cc(=O)c7ccccc7o6)C(C)(C)[C@@H]5CC[C@]43C)[C@@H]2C1 in the records?
Return: > 1180 µM

Enquiry: Entry CC1(C)[C@@H](OC(=O)c2cc(=O)c3ccccc3o2)CC[C@]2(C)[C@H]3CC=C4[C@@H]5C[C@@](C)(C(=O)OCc6ccc(C(F)(F)F)cc6)CC[C@]5(C)CC[C@@]4(C)[C@]3(C)CC[C@@H]12 : reported CC50 = ?
Return: > 1170 µM

Enquiry: Which measured CC50 value corresponds to CC1(C)[C@@H](O)CC[C@]2(C)[C@H]3C(=O)C=C4[C@@H]5C[C@@](C)(C(=O)OCc6ccc(OC(F)(F)F)cc6)CC[C@]5(C)CC[C@@]4(C)[C@]3(C)CC[C@@H]12 ?
Return: > 1130 µM

Enquiry: Please give the measured CC50 for this molecule: CC1(C)[C@@H](O)CC[C@]2(C)[C@H]3C(=O)C=C4[C@@H]5C[C@@](C)(C(=O)OCc6ccc(C(F)(F)F)cc6)CC[C@]5(C)CC[C@@]4(C)[C@]3(C)CC[C@@H]12
Return: > 1370 µM

Enquiry: Given C=CCOC(=O)[C@@]1(C)CC[C@]2(C)CC[C@]3(C)C(=CC(=O)[C@@H]4[C@@]5(C)CC[C@H](O)C(C)(C)[C@@H]5CC[C@]43C)[C@@H]2C1 , state its recorded CC50.
Return: > 2310 µM

Enquiry: Which CC50 value is on record for CC1(C)[C@@H](O)CC[C@]2(C)[C@H]3C(=O)C=C4[C@@H]5C[C@@](C)(C(=O)OCc6cc(C(F)(F)F)cc(C(F)(F)F)c6)CC[C@]5(C)CC[C@@]4(C)[C@]3(C)CC[C@@H]12 ?
Return: > 1700 µM
